Test system: MOLM-13
EXPERIMENT: Antiproliferative activity against human MOLM-13 cells assessed as cell growth inhibition at 10 uM incubated for 48 hrs by CCK8 assay relative to control
Type: functional
EXPERIMENTAL_CONDITIONS: read-out: GI
molecules and their reported inhibition of growth at 10 µM
Field format: number, assumed %, no unit text.

Some molecules with known inhibition of growth at 10 µM results, for comparison:
INPUT_SMILES	ENDPOINT_UNIT	inhibition of growth at 10 µM
COc1ccc2c(c1OC)C(=O)O[C@@H]2[C@H]1c2c(c(CC3CN(C(=O)OC(C)(C)C)C3)c3c(c2OC)OCO3)CCN1C(=O)OC(C)(C)C	%	59
COc1ccc2c(c1OC)C(=O)O[C@@H]2[C@H]1c2c(c(CCCC(F)(F)F)c3c(c2OC)OCO3)CCN1C(=O)OC(C)(C)C	%	36
COc1ccc2c(c1OC)C(=O)O[C@@H]2[C@H]1c2c(c(C3CCOCC3)c3c(c2OC)OCO3)CCN1C(=O)OC(C)(C)C	%	36.8
COCCCc1c2c(c(OC)c3c1OCO3)[C@H]([C@H]1OC(=O)c3c1ccc(OC)c3OC)N(C(=O)OC(C)(C)C)CC2	%	30.4
COc1ccc2c(c1OC)C(=O)O[C@@H]2[C@H]1c2c(c(C34C[C@H]5C[C@H](C3)C[C@@H](C4)C5)c3c(c2OC)OCO3)CCN1C(=O)OC(C)(C)C	%	17.6

// returns reported inhibition of growth at 10 µM for input "COc1ccc2c(c1OC)C(=O)O[C@@H]2[C@H]1c2c(c(C3CN(C(=O)OC(C)(C)C)C3)c3c(c2OC)OCO3)CCN1C(=O)OC(C)(C)C"
49.7
